# MEASURED_ON: GLUT1 (Homo sapiens, UniProt P11166)
# Construct: endogenous in cells
# EXPERIMENT_NOTES: Indirect measurement of GLUT activity by quantification of intracellular ATP levels (glucose induced ATP increase)
# EXPERIMENTAL_CONDITIONS: DLD1 cells; 1 mM glucose, 1 uM Rotenone, 15 min; standardized to cytochalasin B IC50 values; read-out: IC50 regarding glucose induced ATP increase (GLUT1 inhibition)
For each record, write down the corresponding pIC50.
Give bare numbers, as −log10 of the molar value.

Please review the following examples before continuing.
Cc1nn(Cc2cccc(F)c2)cc1NC(=O)c1cc(C(N)=O)nc2ccccc12: 6.71
Cc1nn(CC2CCCCC2)cc1NC(=O)c1cc(C(N)=O)nc2ccccc12: 6.25
CCS(=O)(=O)N1CCC(Cn2cc(NC(=O)c3cc(C(F)(F)F)nc4ccc(Br)cc34)c(C)n2)CC1: 6.18
Cc1nn(Cc2ccc(F)cc2)cc1NC(=O)c1cc(C2CC2)nc2ccc(F)cc12: 6.90
COCCNC(=O)c1nn(Cc2ccc(F)cc2)cc1NC(=O)c1cc(C(F)(F)F)nc2ccc(Br)cc12: 4.70

For each listed entry, give its pIC50.
1. COc1ccc(Cn2cc(NC(=O)c3cc(C(F)(F)F)nc4ccc(Br)cc34)c(C(F)(F)F)n2)cc1
2. O=C(Nc1cn(Cc2ccc(F)cc2)nc1C(F)(F)F)c1cc(C(F)(F)F)nc2c(Cl)cc(Cl)cc12
3. O=C(NCCO)c1nn(Cc2ccc(F)cc2)cc1NC(=O)c1cc(C(F)(F)F)nc2ccc(Br)cc12
4. COc1cc(C(=O)Nc2cn(Cc3ccccc3C#N)nc2C)c2ccccc2n1

Response:
6.86
6.12
5.70
6.94

====

# MEASURED_ON: GLUT1 (Homo sapiens, UniProt P11166)
# Construct: endogenous in cells
# EXPERIMENT_NOTES: Indirect measurement of GLUT activity by quantification of intracellular ATP levels (glucose induced ATP increase)
# Type: cell-based
# EXPERIMENTAL_CONDITIONS: DLD1 cells; 1 mM glucose, 1 uM Rotenone, 15 min; standardized to cytochalasin B IC50 values; read-out: IC50 regarding glucose induced ATP increase (GLUT1 inhibition)
For each record, write down the corresponding IC50.
Numbers only, in nM.

N#Cc1ccc(Cn2cc(NC(=O)c3cc(C(F)(F)F)nc4ccc(Br)cc34)c(C(N)=O)n2)cc1 [Example 28]: 544
CC(c1ccc(C#N)cc1)n1cc(NC(=O)c2cc(C(N)=O)nc3ccccc23)c(C(F)(F)F)n1 (racemic) [Example 40]: 32
NC(=O)c1cc(C(=O)Nc2cn(Cc3ccncc3)nc2C(F)(F)F)c2ccccc2n1 [Example 41]: 422

From here, focus on the item given below.
// IC50 value for COc1ccc(Cn2cc(NC(=O)c3cc(C(N)=O)nc4cc(F)c(Cl)cc34)c(C(F)(F)F)n2)cc1 [Example 46] : 4.7

====

# MEASURED_ON: GLUT1 (Homo sapiens)
# Construct: endogenous in cells
# EXPERIMENT_NOTES: Indirect measurement of GLUT activity by quantification of intracellular ATP levels (glucose induced ATP increase)
# EXPERIMENTAL_CONDITIONS: DLD1 cells; 1 mM glucose, 1 uM Rotenone, 15 min; standardized to cytochalasin B IC50 values; read-out: IC50 regarding glucose induced ATP increase (GLUT1 inhibition)
For each record, write down the corresponding IC50.
Please provide the amount together with its unit, number first.

Please review the following examples before continuing.
COc1ccc(Cn2cc(NC(=O)c3cc(C(N)=O)nc4ccccc34)c(C(F)(F)F)n2)cc1: 4.1 nM
N#Cc1ccc(Cn2cc(NC(=O)c3cc(C(F)(F)F)nc4ccc(Br)cc34)c(C(=O)NCCO)n2)cc1: 7040 nM
CN(C)C(=O)c1nn(Cc2ccc(F)cc2)cc1NC(=O)c1cc(C(F)(F)F)nc2ccc(Br)cc12: 20 nM

// IC50 value for `COC(=O)c1nn(Cc2ccc(F)cc2)cc1NC(=O)c1cc(C(F)(F)F)nc2ccc(Br)cc12` : 64 nM

====

For each record, write down the corresponding pIC50.
# MEASURED_ON: GLUT2 (Homo sapiens, UniProt P11168)
# Sequence (P11168 whole entry, species assumed): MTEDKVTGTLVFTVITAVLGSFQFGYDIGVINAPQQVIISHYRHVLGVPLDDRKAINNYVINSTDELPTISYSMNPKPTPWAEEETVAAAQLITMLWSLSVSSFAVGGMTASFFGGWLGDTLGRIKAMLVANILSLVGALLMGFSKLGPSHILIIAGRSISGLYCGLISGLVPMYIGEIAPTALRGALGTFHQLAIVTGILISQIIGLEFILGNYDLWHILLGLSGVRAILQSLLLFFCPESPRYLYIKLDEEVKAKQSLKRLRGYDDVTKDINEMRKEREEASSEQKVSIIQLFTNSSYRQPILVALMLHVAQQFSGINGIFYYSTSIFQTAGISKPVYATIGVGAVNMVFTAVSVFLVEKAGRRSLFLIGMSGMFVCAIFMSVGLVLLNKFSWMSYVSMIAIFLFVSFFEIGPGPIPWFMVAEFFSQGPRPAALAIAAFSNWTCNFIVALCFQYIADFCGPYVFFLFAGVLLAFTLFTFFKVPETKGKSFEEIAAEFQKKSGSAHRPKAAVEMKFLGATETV
# EXPERIMENT_NOTES: Indirect measurement of GLUT activity by quantification of intracellular ATP levels (fructose induced ATP increase)
# EXPERIMENTAL_CONDITIONS: 30 mM fructose, 1 uM Rotenone, 15 min; read-out: IC50 regarding fructose induced ATP increase (GLUT2 inhibition)
Answers are plain numbers, as −log10 of the molar value.

Cc1nn(Cc2ccc(C#N)cc2)cc1NC(=O)c1cc(C(N)=O)nc2ccccc12: 4.44

Hey, GLUT2 (Homo sapiens, UniProt P11168) data for `Cc1ccc2nc(C)cc(C(=O)Nc3cn(Cc4ccc(F)cc4)nc3C)c2c1` : pIC50 came out at 5.28

====

# MEASURED_ON: GLUT1 (Homo sapiens)
# Construct: endogenous in cells
# EXPERIMENT_NOTES: Indirect measurement of GLUT activity by quantification of intracellular ATP levels (glucose induced ATP increase)
# Format: cell-based
# EXPERIMENTAL_CONDITIONS: DLD1 cells; 1 mM glucose, 1 uM Rotenone, 15 min; standardized to cytochalasin B IC50 values; read-out: IC50 regarding glucose induced ATP increase (GLUT1 inhibition)
RECORDED_ENDPOINT: IC50 (nM)
One number for each entry, in nM.

Please review the following examples before continuing.
NC(=O)c1nn(Cc2ccc(F)cc2)cc1NC(=O)c1cc(C(F)(F)F)nc2ccc(Br)cc12: 1150
Cc1nn(Cc2ccc(C#N)cc2)cc1NC(=O)c1cc(C(F)(F)F)nc2ccc(Br)cc12: 21
Cc1nn(Cc2ccn(C)n2)cc1NC(=O)c1cc(C(F)(F)F)nc2ccc(Br)cc12: 172
Cc1nn(Cc2ccccc2C#N)cc1NC(=O)c1cc(C(F)(F)F)nc2ccc(Br)cc12: 97
COc1cc(C(=O)Nc2cn(Cc3ccc(F)cc3)nc2C)c2ccccc2n1: 150

For each listed entry, give its IC50.
1. COC(=O)c1nn(Cc2ccc(C#N)cc2)cc1NC(=O)c1cc(C(F)(F)F)nc2ccc(Br)cc12
2. N#Cc1ccc(Cn2cc(NC(=O)c3cc(C(N)=O)nc4cc(F)c(Cl)cc34)c(C(F)(F)F)n2)cc1
3. COc1ccc(Cn2cc(NC(=O)c3cc(OC)nc4ccccc34)c(C(F)(F)F)n2)cc1

Response:
1650
4.4
193

====

# MEASURED_ON: GLUT1 (Homo sapiens, UniProt P11166)
# Construct: endogenous in cells
# Sequence (P11166 1-492): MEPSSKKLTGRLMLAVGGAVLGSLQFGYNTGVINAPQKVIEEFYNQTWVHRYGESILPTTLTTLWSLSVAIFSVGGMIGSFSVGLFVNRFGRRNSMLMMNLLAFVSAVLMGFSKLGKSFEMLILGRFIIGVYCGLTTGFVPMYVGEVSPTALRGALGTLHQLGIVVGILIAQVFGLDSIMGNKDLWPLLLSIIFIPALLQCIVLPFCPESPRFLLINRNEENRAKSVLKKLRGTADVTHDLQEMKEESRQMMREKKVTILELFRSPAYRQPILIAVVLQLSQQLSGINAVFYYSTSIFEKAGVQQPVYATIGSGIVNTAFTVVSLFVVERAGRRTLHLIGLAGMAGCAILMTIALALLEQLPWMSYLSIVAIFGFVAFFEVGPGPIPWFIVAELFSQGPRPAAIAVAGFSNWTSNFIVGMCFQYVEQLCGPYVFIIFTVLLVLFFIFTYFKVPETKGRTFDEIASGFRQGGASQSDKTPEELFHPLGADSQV
# EXPERIMENT_NOTES: Indirect measurement of GLUT activity by quantification of intracellular ATP levels (glucose induced ATP increase)
# EXPERIMENTAL_CONDITIONS: DLD1 cells; 1 mM glucose, 1 uM Rotenone, 15 min; standardized to cytochalasin B IC50 values; read-out: IC50 regarding glucose induced ATP increase (GLUT1 inhibition)
Rule: measured IC50 below 200 nM gets 1.0; anything equal to or greater than 200 nM gets 0.0.

Cc1nn(Cc2ccncc2)cc1NC(=O)c1cc(C(N)=O)nc2ccccc12 [Example 58]: 0.0
CCc1nn(Cc2ccc(C#N)cc2)cc1NC(=O)c1cc(C(N)=O)nc2cc(F)ccc12 [Example 59]: 1.0
COc1ccc(Cn2cc(NC(=O)c3cc(C(N)=O)nc4cc(F)ccc34)c(C(F)(F)F)n2)cc1 [Example 50]: 1.0
O=C(O)c1nn(Cc2ccc(F)cc2)cc1NC(=O)c1cc(C(F)(F)F)nc2ccc(Br)cc12 [Example 18]: 1.0

Request: Problem: For the molecule CS(=O)(=O)c1ccc(Cn2cc(NC(=O)c3cc(C(F)(F)F)nc4ccc(Br)cc34)c(C(F)(F)F)n2)cc1 [Example 43] , is IC50 under 200 nM?
Response: 0.0

Request: Problem: For the molecule COc1cc(C(=O)Nc2cn(Cc3ccc(C#N)cc3)nc2C(F)(F)F)c2ccccc2n1 [Example 37] , is IC50 under 200 nM?
Response: 1.0

Request: Problem: For the molecule Cc1nn(Cc2ccc(F)cc2)cc1NC(=O)c1cc(C(F)(F)F)nc2c(Cl)cc(Cl)cc12 [Example 7] , is IC50 under 200 nM?
Response: 1.0

Request: Problem: For the molecule COCCNC(=O)c1nn(Cc2ccc(C#N)cc2)cc1NC(=O)c1cc(C(F)(F)F)nc2ccc(Br)cc12 [Example 30] , is IC50 under 200 nM?
Response: 0.0
